measured-target: plasma kallikrein (Homo sapiens)
Sequence (P03952 391-638 limits assumed): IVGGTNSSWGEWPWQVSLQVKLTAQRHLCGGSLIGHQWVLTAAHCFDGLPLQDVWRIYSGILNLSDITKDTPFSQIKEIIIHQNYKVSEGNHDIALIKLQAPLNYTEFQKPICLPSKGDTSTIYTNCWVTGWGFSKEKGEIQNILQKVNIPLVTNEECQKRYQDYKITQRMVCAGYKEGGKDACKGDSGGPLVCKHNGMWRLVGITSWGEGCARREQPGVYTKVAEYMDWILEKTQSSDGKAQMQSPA
Sequence (P03952 20-390 partner limits assumed): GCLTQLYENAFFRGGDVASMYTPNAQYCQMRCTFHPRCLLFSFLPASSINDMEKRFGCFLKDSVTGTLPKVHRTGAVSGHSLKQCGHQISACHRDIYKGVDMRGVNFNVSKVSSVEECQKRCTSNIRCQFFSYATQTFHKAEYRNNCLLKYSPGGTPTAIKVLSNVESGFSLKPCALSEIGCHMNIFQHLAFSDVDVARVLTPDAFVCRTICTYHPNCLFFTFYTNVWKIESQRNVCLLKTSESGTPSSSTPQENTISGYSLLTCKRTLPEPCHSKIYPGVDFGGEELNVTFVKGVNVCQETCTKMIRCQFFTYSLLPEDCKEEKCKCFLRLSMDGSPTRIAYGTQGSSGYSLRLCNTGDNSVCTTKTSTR
protocol-details: Activity measurement of chemically synthesized human plasma kallikrein inhibitors (residual activity, Z-Phe-Arg-AMC)
Type: biochemical
Parameters: purchased Innovative Research (Southfiled, Mich., USA)
experimental-setup: synthetic peptide after modification with TBMB; human plasma kallikrein 0.1 nM; read-out: IC50 (nM) Bi-cyclic peptide
*1 amine or outer side, *2 acyl side, *3 side chain or, on linkers, in order; H or OH if unused. Where a SMILES comes first, the peptide text is derived from it. Bridges are numbered along the chain shown (N, C = ends). TBMB = c1c(C[*:1])cc(C[*:3])cc1C[*:2]
reported-metric: IC50 (nM)
Answers are plain numbers, in nM.

Test system plasma kallikrein (Homo sapiens); read-out IC50; what value for CC(C)C[C@@H]1NC(=O)[C@H](C)NC(=O)[C@H](CCC(=O)O)NC(=O)[C@H](CC(=O)O)NC(=O)[C@H](C)NC(=O)[C@@H]2CCCN2C(=O)[C@@H]2CSCc3cc(cc(c3)CSC[C@@H](C(=O)NCC(N)=O)NC1=O)CSC[C@H](NC(=O)[C@H](C)N)C(=O)N[C@@H](CO)C(=O)N[C@@H](CC(=O)O)C(=O)N[C@@H](CCCNC(=N)N)C(=O)N[C@@H](Cc1ccccc1)C(=O)N[C@@H](CCCNC(=N)N)C(=O)N[C@@H](CC(N)=O)C(=O)N2 [PK15] (H-ACSDRFRNCPADEALCG-NH2; linker 2-9-16 via TBMB (inferred)) ?
1.7
